Property: Kd; scope: individual binders
Target: T1, Human VSIG4-L-His (human, UniProt Q9Y279 20-283)
T1 construct: long isoform ECD with His tag; also called hVSIG4-L
T1 sequence: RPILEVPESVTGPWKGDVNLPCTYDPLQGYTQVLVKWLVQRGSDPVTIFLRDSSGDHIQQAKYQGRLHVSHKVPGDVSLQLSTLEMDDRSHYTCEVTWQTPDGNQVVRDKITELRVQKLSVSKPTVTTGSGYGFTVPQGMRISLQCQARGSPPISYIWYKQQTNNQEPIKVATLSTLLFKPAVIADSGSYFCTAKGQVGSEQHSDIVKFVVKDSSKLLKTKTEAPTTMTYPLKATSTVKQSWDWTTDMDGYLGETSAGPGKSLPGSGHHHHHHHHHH
Test: SPR (FJB)

binder | Kd (nM)
16G02 mouse/human chimeric IgG4 (S228P) kappa (antibody, V domains shown) VH: QVQLQQSGAELMKPGASVKISCKATGYTFSSYWIEWVKQRPGHGLEWIGEILPGSSTTNYNEKFKGKATFTADTSSNTAYMQLSSLTSEDSAVYYCAREDHFITTARYAMDYWGQGTSVTVSS VL: DIVLTQSPASLAMSVGQKVTMSCKSSQSLLNSSNQKNYLAWYQQKPGQSPKLLLYFASTRESGVPDRFIGSGSGTDFTLTISSVQAEDLADYFCQQHYSNPLTFGAGTKLELKR | 2.5
12A12 mouse/human chimeric IgG4 (S228P) kappa (antibody, V domains shown) VH: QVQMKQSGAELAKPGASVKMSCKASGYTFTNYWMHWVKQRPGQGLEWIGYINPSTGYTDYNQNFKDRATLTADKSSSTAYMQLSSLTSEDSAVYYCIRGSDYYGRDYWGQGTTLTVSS VL: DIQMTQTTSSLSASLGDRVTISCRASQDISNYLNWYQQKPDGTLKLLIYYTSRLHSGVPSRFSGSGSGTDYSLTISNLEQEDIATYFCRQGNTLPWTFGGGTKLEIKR | 8.6
12A08 mouse/human chimeric IgG4 (S228P) kappa (antibody, V domains shown) VH: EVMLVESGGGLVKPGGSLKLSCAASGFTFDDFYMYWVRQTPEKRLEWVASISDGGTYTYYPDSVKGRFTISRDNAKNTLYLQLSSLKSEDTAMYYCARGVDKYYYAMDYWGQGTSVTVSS VL: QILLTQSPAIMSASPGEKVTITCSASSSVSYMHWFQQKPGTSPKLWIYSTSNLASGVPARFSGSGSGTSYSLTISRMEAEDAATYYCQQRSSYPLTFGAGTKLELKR | 6.7
16E03 mouse/human chimeric IgG4 (S228P) kappa (antibody, V domains shown) VH: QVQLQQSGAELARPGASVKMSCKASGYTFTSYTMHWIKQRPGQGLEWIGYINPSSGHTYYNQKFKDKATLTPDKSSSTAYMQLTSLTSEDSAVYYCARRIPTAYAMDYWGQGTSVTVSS VL: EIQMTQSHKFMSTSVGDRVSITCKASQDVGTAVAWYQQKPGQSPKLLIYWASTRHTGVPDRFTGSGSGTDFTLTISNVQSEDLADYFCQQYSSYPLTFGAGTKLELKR | 29.7
16E10 mouse/human chimeric IgG4 (S228P) kappa (antibody, V domains shown) VH: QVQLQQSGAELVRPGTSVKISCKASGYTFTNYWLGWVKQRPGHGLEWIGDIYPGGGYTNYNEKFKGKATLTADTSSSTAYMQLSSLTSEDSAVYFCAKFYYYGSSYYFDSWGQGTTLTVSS VL: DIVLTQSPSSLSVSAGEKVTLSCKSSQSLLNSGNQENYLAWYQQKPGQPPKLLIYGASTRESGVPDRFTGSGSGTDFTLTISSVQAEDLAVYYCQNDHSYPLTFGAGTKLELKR | 66.1
